run_description: Hydrolytic degradation kinetics of neat monomers by 1H NMR
Format: physicochemical
measurement_context: day 1; 50 mM monomer, aqueous pH=1, 37° C.
quantity_measured: Percent remaining monomer

Known Percent remaining monomer results, listed for orientation:
compound | Percent remaining monomer
C=C(C)C(=O)OCCO [HEMA, 2-hydroxyethyl methacrylate, reference compound] | 93.1 ± 0.04%
C=CC(=O)N(C)CCCN(C)CCCN(C)C(=O)C=C | 99.8 ± 0.01%

Query: Which Percent remaining monomer reading was recorded for the compound C=CC(=O)NN1CCCN(NC(=O)C=C)CC1 ?
Response: 100.0 ± 0.0%

Query: Which Percent remaining monomer reading was recorded for the compound C=CC(=O)N(C)CCN(CCN(C)C(=O)C=C)CCN(C)C(=O)C=C ?
Response: 99.8 ± 0.2%

----------
run_description: Hydrolytic degradation kinetics of neat monomers by 1H NMR
Format: physicochemical
measurement_context: fit to exponential decay curves, pH=1; read-out: monomer half-life (converted)
Overview of reported half-life at 50 mM across a group of compounds:
Enter the number, and then the unit.

compound | reading
C=C(C)C(=O)OCCO [HEMA, 2-hydroxyethyl methacrylate, reference compound] | 9.5 days

Continue with the next compound.
Query: Which half-life at 50 mM reading was recorded for the compound C=CC(=O)N(C)CCN(CCN(C)C(=O)C=C)CCN(C)C(=O)C=C ?
Response: 350 days
